# Tested on: NCI-H23 lung
# PROTOCOL NOTES: NCI tumour cell line growth inhibition, 48 h; in the data active = GI50 below about 0.43 µM; inactive = the rest
Please reply with one of these outcomes: active, inactive

Answered cases to consult:
compound="Nc1c([N+](=O)[O-])ncn1C1OC(CO)C(O)C1O (stereo unspecified)" system_tested="NCI-H23 lung" class_assignment=inactive
compound="CN(Cc1cnc2nc(N)nc(N)c2n1)c1c(Cl)cc(C(=O)NC(CCC(=O)O)C(=O)O)cc1Br (stereo unspecified)" system_tested="NCI-H23 lung" class_assignment=active
compound=Clc1cc(Cl)cc(Nc2ccc3c(OCCCN4CCOCC4)cccc3n2)c1 system_tested="NCI-H23 lung" class_assignment=inactive

Tell me the recorded outcome of this test for `O=C([CH-]C(=O)c1ccccc1)c1ccccc1.[CH2-]C.[CH2-]C.[Tl+3]` .
inactive

Recorded test call requested for `COC(=O)c1sc(=S)c2sc(C(=O)OC)c(C(=O)OC)c2c1C(=O)OC`
inactive

What did this assay record as the result for `COc1ccc(C2=NOC3=c4ccccc4=CSC3=C2c2ccccc2)cc1` ?
inactive

Identify the outcome logged in this assay for the compound shown: COc1ccc2c(c1)CCC1C2CCC2(C)C(NC(=O)CCCCC3CCSS3)CCC12 (stereo unspecified)
inactive

What was the test verdict on `COc1cc(-c2ccc[nH]2)[nH]c1/C=C1\N=C(C)C(C(=O)NC(C)C)=C1C` ?
inactive
